Collected AC50 values appear next to each entry.
STUDY TARGET: 5-hydroxytryptamine receptor 2B (Homo sapiens, UniProt P41595); also: assay procedure not described here
Sequence (P41595 whole entry): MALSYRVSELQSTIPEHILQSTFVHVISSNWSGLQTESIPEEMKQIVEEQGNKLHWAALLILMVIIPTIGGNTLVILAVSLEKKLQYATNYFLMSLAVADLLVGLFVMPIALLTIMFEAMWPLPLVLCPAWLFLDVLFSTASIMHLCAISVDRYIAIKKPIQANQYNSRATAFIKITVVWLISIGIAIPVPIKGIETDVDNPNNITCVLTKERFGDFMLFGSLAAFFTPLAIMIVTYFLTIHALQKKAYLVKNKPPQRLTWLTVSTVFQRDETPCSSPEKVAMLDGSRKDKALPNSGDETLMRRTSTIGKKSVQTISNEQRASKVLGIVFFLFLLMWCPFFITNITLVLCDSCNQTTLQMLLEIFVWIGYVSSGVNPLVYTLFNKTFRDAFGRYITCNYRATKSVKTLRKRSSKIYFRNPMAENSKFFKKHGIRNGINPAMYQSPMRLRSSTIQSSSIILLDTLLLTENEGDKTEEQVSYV
Type: functional, cell-based

# COMPOUND, AC50
rows = [
    ("CCOC(=O)C1=C(C)NC(C)=C(C(=O)OC)C1c1cccc(Cl)c1Cl (centres undefined)", "> 10 µM"),
    ("CCN(C(C)=O)c1cccc(-c2ccnc3c(C#N)cnn23)c1", "> 10 µM"),
    ("COc1cc(C(=O)NCc2ccc(OCCN(C)C)cc2)cc(OC)c1OC [TRIMETHOBENZAMIDE]", "> 30 µM"),
]

Request: Please provide the recorded AC50 for CC(C)(Oc1ccc(Cl)cc1)C(=O)OCCOC(=O)c1cccnc1 [ETOFIBRATE] , tested on 5-hydroxytryptamine receptor 2B (Homo sapiens, UniProt P41595). Also: assay procedure not described here.
Response: > 30 µM

Request: Find the measured AC50: item `COc1ccc(C(Cl)=C(c2ccc(OC)cc2)c2ccc(OC)cc2)cc1` , target or system 5-hydroxytryptamine receptor 2B (Homo sapiens, UniProt P41595). Also: assay procedure not described here.
Response: > 30 µM

Request: // fetch 5-hydroxytryptamine receptor 2B (Homo sapiens, UniProt P41595) AC50 for CCC(=O)O[C@H](CC(=O)O)C[N+](C)(C)C [LEVOCARNITINE PROPIONATE]
Response: > 30 µM

Request: API: value(readout= AC50, system= 5-hydroxytryptamine receptor 2B (Homo sapiens, UniProt P41595), query= `NCC1(CC(=O)O)CCCCC1` ); also: assay procedure not described here
Response: > 30 µM

Request: Write down the reported AC50 of `NCCCCCC(=O)O` , test system: 5-hydroxytryptamine receptor 2B (Homo sapiens, UniProt P41595). Also: assay procedure not described here.
Response: > 10 µM

Request: Record lookup: for 5-hydroxytryptamine receptor 2B (Homo sapiens, UniProt P41595), what AC50 belongs to `CC(C)(CO)c1cc2cc(NC(=O)C3(c4ccc5c(c4)OC(F)(F)O5)CC3)c(F)cc2n1C[C@@H](O)CO` ?
Response: > 30 µM

----------
STUDY TARGET: Thromboxane A2 receptor (Homo sapiens, UniProt P21731); also: assay procedure not described here
Sequence (P21731 whole entry): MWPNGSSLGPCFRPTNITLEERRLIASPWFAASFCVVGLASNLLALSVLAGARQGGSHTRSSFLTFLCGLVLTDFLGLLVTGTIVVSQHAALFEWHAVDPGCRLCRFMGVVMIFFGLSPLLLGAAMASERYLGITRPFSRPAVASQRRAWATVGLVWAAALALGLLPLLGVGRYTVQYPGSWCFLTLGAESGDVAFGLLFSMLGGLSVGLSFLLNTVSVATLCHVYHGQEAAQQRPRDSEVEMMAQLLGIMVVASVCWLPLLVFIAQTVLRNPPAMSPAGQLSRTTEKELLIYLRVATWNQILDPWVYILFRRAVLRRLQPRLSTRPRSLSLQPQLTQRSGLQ
READOUT: AC50

Please review the entries below; each comes with its answer.
# COMPOUND, ASSAY VALUE
records = [
    ("CN(Cc1ccc(C(C)(C)C)cc1)Cc1cccc2ccccc12", "> 10 µM"),
    ("CS(=O)(=O)Nc1ccc([N+](=O)[O-])cc1Oc1ccccc1 [NIMESULIDE]", "27 µM"),
    ("CC(=O)NC[C@H]1CN(c2ccc(N3CCOCC3)c(F)c2)C(=O)O1", "> 30 µM"),
    ("CO/N=C(\\C(=O)N[C@@H]1C(=O)N2C(C(=O)O)=C(CSc3nc(C)c(CC(=O)O)s3)CS[C@H]12)c1csc(N)n1", "> 30 µM"),
    ("OCCOCCN1CCN(C(c2ccccc2)c2ccc(Cl)cc2)CC1 (centres undefined) [HYDROXYZINE]", "> 30 µM"),
]

Request: Which AC50 value belongs to `O=C1CN=C(c2ccccc2Cl)c2cc([N+](=O)[O-])ccc2N1` ?
Response: > 30 µM

----------
STUDY TARGET: Alpha-2C adrenergic receptor (Homo sapiens, UniProt P18825); also: assay procedure not described here
Sequence (P18825 whole entry): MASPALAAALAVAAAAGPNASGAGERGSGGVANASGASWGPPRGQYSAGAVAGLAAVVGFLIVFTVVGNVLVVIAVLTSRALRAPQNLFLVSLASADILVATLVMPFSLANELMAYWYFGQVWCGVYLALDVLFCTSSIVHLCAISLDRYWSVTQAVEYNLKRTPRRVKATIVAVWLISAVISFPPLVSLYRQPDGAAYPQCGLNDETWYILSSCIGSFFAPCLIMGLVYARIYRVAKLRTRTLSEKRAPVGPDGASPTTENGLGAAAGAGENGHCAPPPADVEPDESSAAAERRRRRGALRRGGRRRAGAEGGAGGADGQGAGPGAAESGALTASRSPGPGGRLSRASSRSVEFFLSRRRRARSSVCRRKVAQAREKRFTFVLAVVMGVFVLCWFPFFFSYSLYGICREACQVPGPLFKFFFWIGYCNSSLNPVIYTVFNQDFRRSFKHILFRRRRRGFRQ
Assay type: functional
The molecules listed here are annotated with their AC50.

# MOLECULE, AC50
data = [
    ("CCNC(=O)CCC/C=C\\C[C@@H]1[C@@H](/C=C/[C@@H](O)CCc2ccccc2)[C@H](O)C[C@@H]1O", "> 30 µM"),
]

Request: // map `CCOC(=O)Nc1ccc(NCc2ccc(F)cc2)nc1N` to recorded AC50 (system: Alpha-2C adrenergic receptor (Homo sapiens, UniProt P18825)); also: assay procedure not described here
Response: > 30 µM

Request: Lab note: need AC50 for `CCN(CC)CCCN(c1ccccc1)C1Cc2ccccc2C1` on Alpha-2C adrenergic receptor (Homo sapiens, UniProt P18825), anyone have it?
Response: 7.9 µM

Request: # query: AC50 | item `C[C@@H](Cc1ccccc1)N(C)Cc1ccccc1` | system: Alpha-2C adrenergic receptor (Homo sapiens, UniProt P18825); also: assay procedure not described here
Response: 0.68 µM

Request: I'm curious: which AC50 was measured for `CCN(CC)Cc1nccn1-c1ccc([N+](=O)[O-])cc1C(=O)c1ccccc1Cl` tested on Alpha-2C adrenergic receptor (Homo sapiens, UniProt P18825)?; also: assay procedure not described here
Response: > 30 µM

Request: Find the measured AC50: item CCCO[C@H]1[C@@H]([C@@H](COCc2ccc(Cl)cc2)OCc2ccc(Cl)cc2)OC(OCC)[C@@H]1O (stereo partly drawn) [CLOBENOSIDE] , target or system Alpha-2C adrenergic receptor (Homo sapiens, UniProt P18825). Also: assay procedure not described here.
Response: > 30 µM

Request: Please tell me: AC50 of `CCOc1ccccc1OCCN[C@H](C)Cc1ccc(OC)c(S(N)(=O)=O)c1` , system Alpha-2C adrenergic receptor (Homo sapiens, UniProt P18825)?; also: assay procedure not described here
Response: 0.3 µM

Request: Lab request: please report AC50 under test system Alpha-2C adrenergic receptor (Homo sapiens, UniProt P18825) for `CNCCc1ccccn1`; also: assay procedure not described here
Response: > 30 µM

----------
# key: entry, value: AC50
STUDY TARGET: Gamma-aminobutyric acid receptor subunit alpha-1/alpha-2/beta-2/gamma-2 (Homo sapiens, UniProt P14867+P18507+P47869+P47870); also: assay procedure not described here
Sequence (P14867 whole entry): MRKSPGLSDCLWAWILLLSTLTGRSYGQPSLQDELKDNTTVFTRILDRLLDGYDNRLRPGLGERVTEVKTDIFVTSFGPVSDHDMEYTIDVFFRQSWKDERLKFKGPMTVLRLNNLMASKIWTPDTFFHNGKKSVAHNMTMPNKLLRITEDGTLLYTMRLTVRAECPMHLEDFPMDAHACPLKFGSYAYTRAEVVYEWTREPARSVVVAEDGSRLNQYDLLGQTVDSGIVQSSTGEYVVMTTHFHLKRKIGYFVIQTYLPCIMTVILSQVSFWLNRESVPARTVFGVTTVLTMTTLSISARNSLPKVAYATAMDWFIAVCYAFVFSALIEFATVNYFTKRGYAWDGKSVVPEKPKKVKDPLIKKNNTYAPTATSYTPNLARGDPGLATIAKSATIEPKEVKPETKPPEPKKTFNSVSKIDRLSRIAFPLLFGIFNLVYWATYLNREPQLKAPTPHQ
Sequence (P47870 whole entry): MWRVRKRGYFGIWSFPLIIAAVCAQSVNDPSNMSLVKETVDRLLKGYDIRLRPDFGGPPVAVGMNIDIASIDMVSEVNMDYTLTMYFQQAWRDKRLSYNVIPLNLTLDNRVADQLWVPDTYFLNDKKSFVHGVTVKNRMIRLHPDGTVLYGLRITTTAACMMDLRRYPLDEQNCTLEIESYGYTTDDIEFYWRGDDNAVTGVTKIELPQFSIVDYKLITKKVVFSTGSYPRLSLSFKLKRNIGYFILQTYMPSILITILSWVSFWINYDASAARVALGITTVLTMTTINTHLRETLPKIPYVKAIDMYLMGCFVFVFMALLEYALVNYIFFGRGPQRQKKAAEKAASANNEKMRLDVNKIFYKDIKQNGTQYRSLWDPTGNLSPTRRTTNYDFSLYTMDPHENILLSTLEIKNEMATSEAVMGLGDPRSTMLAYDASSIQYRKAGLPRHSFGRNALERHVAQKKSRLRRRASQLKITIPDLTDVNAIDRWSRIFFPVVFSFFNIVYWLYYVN
Sequence (P18507 whole entry): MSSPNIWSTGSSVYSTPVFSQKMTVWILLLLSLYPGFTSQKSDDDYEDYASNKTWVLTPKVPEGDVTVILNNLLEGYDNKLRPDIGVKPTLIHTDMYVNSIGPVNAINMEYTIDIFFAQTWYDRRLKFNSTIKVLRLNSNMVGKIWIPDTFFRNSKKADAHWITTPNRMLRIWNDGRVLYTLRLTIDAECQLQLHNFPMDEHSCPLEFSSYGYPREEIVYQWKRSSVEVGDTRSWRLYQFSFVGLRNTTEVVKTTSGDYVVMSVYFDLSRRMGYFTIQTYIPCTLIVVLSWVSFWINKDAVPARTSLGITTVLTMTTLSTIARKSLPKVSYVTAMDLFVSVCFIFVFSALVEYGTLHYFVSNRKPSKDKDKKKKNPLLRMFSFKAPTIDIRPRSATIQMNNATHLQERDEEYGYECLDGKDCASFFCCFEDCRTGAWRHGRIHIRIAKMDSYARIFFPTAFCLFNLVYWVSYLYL
Sequence (P47869 whole entry): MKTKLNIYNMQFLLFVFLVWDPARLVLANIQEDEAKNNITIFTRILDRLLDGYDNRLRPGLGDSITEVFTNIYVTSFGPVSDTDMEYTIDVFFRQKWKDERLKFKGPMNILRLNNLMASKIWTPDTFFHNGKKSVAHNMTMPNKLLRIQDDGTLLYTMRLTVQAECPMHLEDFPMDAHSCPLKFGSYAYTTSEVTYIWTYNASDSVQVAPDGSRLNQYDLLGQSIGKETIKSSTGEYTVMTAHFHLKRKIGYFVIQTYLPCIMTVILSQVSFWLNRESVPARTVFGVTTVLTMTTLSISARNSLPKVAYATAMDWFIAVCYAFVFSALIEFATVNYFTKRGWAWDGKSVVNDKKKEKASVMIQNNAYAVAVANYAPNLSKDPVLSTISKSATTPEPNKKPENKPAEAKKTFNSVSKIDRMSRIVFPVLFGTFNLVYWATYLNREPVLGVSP
Type: protein-complex assay

# COMPOUND, ASSAY VALUE
data = [
    ("Cc1ccc2c([nH]c(=O)c3c(=O)cc(C(=O)OCCC(C)C)oc32)c1C", "> 10 µM"),
    ("CN(C)CCC=C1c2ccccc2CCc2ccccc21", "> 30 µM"),
]

Request: Report AC50 for `COC(=O)Nc1nc2cc(C(=O)c3ccc(F)cc3)ccc2[nH]1` please.
Response: > 30 µM

Request: Sample Cc1c(C)c2c(c(C)c1O)CCC(C)(COc1ccc(CC3SC(=O)NC3=O)cc1)O2 (centres undefined) — what was its AC50?
Response: > 3 µM

Request: AC50 for `O=C(O)[C@H](O)[C@@H](O)[C@H](O)[C@H](O)CO` ?
Response: > 30 µM

Request: Suppose we examine the compound `C[C@H]1C[C@H]2[C@@H]3CCC4=CC(=O)C=C[C@]4(C)[C@@]3(F)[C@@H](O)C[C@]2(C)[C@@]1(O)C(=O)CO` ; what AC50 value has been reported?
Response: > 30 µM

Request: I have this compound here, `COC(=O)N(C)c1c(N)nc(-c2nn(Cc3ccccc3F)c3ncccc23)nc1N` , and I need its recorded AC50.
Response: > 30 µM

Request: Any idea what its AC50 is? The compound is `Cc1c(C(C)C)c(=O)n(-c2ccccc2)n1C`
Response: > 30 µM

----------
STUDY TARGET: 5-hydroxytryptamine receptor 1A (Homo sapiens, UniProt P08908); also: assay procedure not described here
Sequence (P08908 whole entry): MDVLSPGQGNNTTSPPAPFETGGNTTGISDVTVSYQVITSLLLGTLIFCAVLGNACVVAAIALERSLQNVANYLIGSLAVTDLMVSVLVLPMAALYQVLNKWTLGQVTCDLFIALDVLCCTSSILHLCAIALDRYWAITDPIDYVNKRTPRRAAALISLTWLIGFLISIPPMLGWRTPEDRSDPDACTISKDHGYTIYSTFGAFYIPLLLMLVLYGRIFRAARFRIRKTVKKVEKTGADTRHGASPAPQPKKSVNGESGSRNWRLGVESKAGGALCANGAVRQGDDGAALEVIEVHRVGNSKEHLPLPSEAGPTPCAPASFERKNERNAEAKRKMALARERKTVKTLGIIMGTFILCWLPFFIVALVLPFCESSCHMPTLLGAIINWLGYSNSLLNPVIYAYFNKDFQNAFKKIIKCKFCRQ
Assay type: functional, cell-based
READOUT: AC50

Request: Fill blank: measured AC50 of the molecule `CCOc1ccccc1OCCN[C@H](C)Cc1ccc(OC)c(S(N)(=O)=O)c1` is ____.
Response: > 10 µM

Request: Using the record for CC(C(=O)O)c1ccc(C(=O)c2ccccc2)s1 (centres undefined) , report its AC50.
Response: > 10 µM

----------
Items are presented alongside their recorded AC50.
STUDY TARGET: Rod cGMP-specific 3',5'-cyclic phosphodiesterase subunit alpha (Homo sapiens); also: assay procedure not described here
Sequence (P16499 whole entry): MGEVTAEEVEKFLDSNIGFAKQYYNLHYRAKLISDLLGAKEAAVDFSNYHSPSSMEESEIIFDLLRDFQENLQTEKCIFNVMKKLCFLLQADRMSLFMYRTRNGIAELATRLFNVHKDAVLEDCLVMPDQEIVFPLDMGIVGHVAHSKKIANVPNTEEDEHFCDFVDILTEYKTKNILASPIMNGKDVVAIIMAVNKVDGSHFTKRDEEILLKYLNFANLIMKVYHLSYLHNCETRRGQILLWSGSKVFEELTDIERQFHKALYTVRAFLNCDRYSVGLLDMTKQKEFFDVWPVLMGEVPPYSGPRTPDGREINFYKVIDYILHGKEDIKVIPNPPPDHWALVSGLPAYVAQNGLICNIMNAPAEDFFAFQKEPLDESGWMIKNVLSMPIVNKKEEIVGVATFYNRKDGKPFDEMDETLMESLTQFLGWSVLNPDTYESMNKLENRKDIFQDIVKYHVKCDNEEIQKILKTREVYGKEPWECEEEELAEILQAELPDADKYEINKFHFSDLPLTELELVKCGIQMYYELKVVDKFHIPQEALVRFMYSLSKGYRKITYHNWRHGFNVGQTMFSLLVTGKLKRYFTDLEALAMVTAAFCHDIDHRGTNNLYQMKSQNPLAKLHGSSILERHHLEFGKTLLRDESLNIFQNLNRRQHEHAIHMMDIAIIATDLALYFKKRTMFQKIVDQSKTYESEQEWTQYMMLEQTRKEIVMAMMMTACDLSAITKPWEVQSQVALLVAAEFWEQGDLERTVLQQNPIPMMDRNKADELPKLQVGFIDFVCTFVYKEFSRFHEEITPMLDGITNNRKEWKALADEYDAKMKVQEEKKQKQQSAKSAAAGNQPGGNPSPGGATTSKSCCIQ
Format: functional

# COMPOUND, STUDY TARGET, AC50
rows = [
    ("CCOC(=O)[C@H](CCc1ccccc1)N[C@@H](C)C(=O)N1Cc2ccccc2C[C@H]1C(=O)O", "Rod cGMP-specific 3',5'-cyclic phosphodiesterase subunit alpha (Homo sapiens)", "> 10 µM"),
    ("CN1C2CCCC1CC(NC(=O)c1nn(C)c3ccccc13)C2 (centres undefined)", "Rod cGMP-specific 3',5'-cyclic phosphodiesterase subunit alpha (Homo sapiens)", "> 10 µM"),
    ("Cc1ccc(-c2ncc(Cl)cc2-c2ccc(S(C)(=O)=O)cc2)cn1", "Rod cGMP-specific 3',5'-cyclic phosphodiesterase subunit alpha (Homo sapiens)", "> 10 µM"),
]

Continue with the next compound.
Request: Recorded AC50 of `CCN(CC)CC(=O)Nc1c(C)cccc1C` , please.
Response: > 10 µM

----------
STUDY TARGET: Type-1 angiotensin II receptor (Homo sapiens, UniProt P30556); also: assay procedure not described here
Sequence (P30556 whole entry): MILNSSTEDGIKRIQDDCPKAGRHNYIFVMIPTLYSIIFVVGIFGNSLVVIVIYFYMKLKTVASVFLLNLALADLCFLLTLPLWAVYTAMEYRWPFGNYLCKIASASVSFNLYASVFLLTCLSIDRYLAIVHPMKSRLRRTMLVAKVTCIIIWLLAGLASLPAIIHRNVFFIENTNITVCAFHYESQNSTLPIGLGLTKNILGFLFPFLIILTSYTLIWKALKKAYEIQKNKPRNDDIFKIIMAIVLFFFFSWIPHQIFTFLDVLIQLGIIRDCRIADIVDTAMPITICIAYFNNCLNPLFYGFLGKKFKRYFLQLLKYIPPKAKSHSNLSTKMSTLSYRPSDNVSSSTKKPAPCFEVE
READOUT: AC50

Before answering, review these 4 worked examples.
# MOLECULE, AC50
data = [
    ("C[C@H](CS)C(=O)N1CCC[C@H]1C(=O)O", "> 30 µM"),
    ("Nc1c2c(nc3ccccc13)CCCC2O (stereo not given)", "> 30 µM"),
    ("N=C(N)NC(=O)c1nc(Cl)c(N)nc1N [AMILORIDE]", "> 30 µM"),
    ("CC(C)NCC(O)COc1ccc(CC(N)=O)cc1 (stereo not given)", "> 30 µM"),
]

Request: Item `CN(C)[C@@H]1C(O)=C(C(=O)NCN2CCCC2)C(=O)[C@@]2(O)C(O)=C3C(=O)c4c(O)cccc4[C@@](C)(O)[C@H]3C[C@@H]12` with Type-1 angiotensin II receptor (Homo sapiens, UniProt P30556) - AC50?
Response: > 10 µM
